- MEASUREMENT_TARGET: SST2 (Homo sapiens, UniProt P30874)
- Sequence (P30874 whole entry): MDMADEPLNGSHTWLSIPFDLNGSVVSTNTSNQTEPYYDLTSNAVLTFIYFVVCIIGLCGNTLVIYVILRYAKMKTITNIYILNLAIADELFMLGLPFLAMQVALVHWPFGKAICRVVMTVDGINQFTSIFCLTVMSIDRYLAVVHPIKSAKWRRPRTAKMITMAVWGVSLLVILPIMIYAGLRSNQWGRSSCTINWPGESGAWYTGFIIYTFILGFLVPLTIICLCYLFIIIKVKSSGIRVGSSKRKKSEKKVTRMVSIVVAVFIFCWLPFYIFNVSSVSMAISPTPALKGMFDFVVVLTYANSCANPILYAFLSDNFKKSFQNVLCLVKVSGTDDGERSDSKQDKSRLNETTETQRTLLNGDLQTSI
- MEASUREMENT_NOTES: Hit Hunter cAMP XS+ assay, SST2 activation via Gi (reduction of forskolin-stimulated cAMP)
- Assay type: cell-based
- CONDITION_CONTEXT: read-out: SST2 (EMax)
*1 amine or outer side, *2 acyl side, *3 side chain or, on linkers, in order; H or OH if unused. Where a SMILES comes first, the peptide text is derived from it. Side-chain parts run from the residue outwards. [ ]: non-standard residue; d: D form. The star is where a group is joined. Ala(piperidin-4-yl) = O=C([C@H](CC1CCN([*:3])CC1)N[*:1])[*:2]; Ala(piperazin-1-yl) = N[C@@H](CN1CCNCC1)C(=O)O; X5 = CN([C@@H](CC1CCNCC1)C(=O)[*:2])[*:1]; Morpholine(3S-CO) = O=C(O)[C@@H]1COCCN1; Ethylenediamine = C(CN[*:2])N[*:1]; d(hPhe) = N[C@H](CCc1ccccc1)C(=O)O; Hyp = O=C(O)[C@@H]1C[C@@H](O)CN1; hPhe = N[C@@H](CCc1ccccc1)C(=O)O; 3Pal = N[C@@H](Cc1cccnc1)C(=O)O; Tic = O=C(O)[C@@H]1Cc2ccccc2CN1; CO = O=C([*:1])[*:2]; Bn = c1ccc(C*)cc1; X1 = C1CCC(C*)C1
Emax listing for selected molecules.
Record the value in %, omitting the unit from your answer.

Here's what some known entries look like.
>>> recorded_value("NCCNC(=O)O[C@@H]1C[C@H]2C(=O)N[C@@H](CCc3ccccc3)C(=O)N[C@H](Cc3c[nH]c4ccccc34)C(=O)N[C@@H](CC3CCNCC3)C(=O)N[C@@H](Cc3ccc(OCC4CCCC4)cc3)C(=O)N[C@@H](Cc3cccnc3)C(=O)N2C1 [Example 49] (cyclo([3Pal][Hyp]([CO-Ethylenediamine])[hPhe][dW][Ala(piperidin-4-yl)]Y(X1)))")
98.9
>>> recorded_value("NCCNC(=O)O[C@@H]1C[C@H]2C(=O)N[C@@H](CCc3ccccc3)C(=O)N[C@@H](Cc3c[nH]c4ccccc34)C(=O)N[C@@H](CN3CCNCC3)C(=O)N[C@@H](Cc3ccc(OCc4ccccc4)cc3)C(=O)N[C@@H](Cc3cccnc3)C(=O)N2C1 [Example 34] (cyclo([3Pal][Hyp]([CO-Ethylenediamine])[hPhe]W[Ala(piperazin-1-yl)]Y(Bn)))")
49.2

// next entry
## Input Param item = CN1C(=O)[C@@H](Cc2c[nH]c3ccccc23)NC(=O)[C@@H](CCc2ccccc2)NC(=O)[C@@H]2COCCN2C(=O)[C@@H]2Cc3ccccc3CN2C(=O)[C@H](Cc2ccc(OCc3ccccc3)cc2)NC(=O)[C@@H]1CC1CCNCC1 [Example 32] (cyclo([Tic][Morpholine(3S-CO)][d(hPhe)][dW][X5]Y(Bn))) ; retrieve measured Emax.
## Output 98.8

###

EC50 listing for selected compounds.
- MEASUREMENT_TARGET: SST2 (Homo sapiens, UniProt P30874)
- MEASUREMENT_NOTES: Hit Hunter cAMP XS+ assay, SST2 activation via Gi (reduction of forskolin-stimulated cAMP)
- Format: cell-based
- CONDITION_CONTEXT: reduction of forskolin-stimulated cAMP; 4-parameter logistic fit; read-out: SST2 pEC50 (converted)
*1 amine or outer side, *2 acyl side, *3 side chain or, on linkers, in order; H or OH if unused. Where a SMILES comes first, the peptide text is derived from it. Side-chain parts run from the residue outwards. [ ]: non-standard residue; d: D form. The star is where a group is joined. Ala(piperidin-4-yl) = O=C([C@H](CC1CCN([*:3])CC1)N[*:1])[*:2]; Morpholine(3S-CO) = O=C(O)[C@@H]1COCCN1; Ethylenediamine = C(CN[*:2])N[*:1]; d(hPhe) = N[C@H](CCc1ccccc1)C(=O)O; Hyp = O=C(O)[C@@H]1C[C@@H](O)CN1; Pip(4-aza) = O=C(O)[C@@H]1CNCCN1; hPhe = N[C@@H](CCc1ccccc1)C(=O)O; Tic = O=C(O)[C@@H]1Cc2ccccc2CN1; CO = O=C([*:1])[*:2]; Bn = c1ccc(C*)cc1
Record the value in nM, omitting the unit from your answer.

Here's what some known entries look like.
>>> recorded_value("O=C1N[C@@H](Cc2ccc(OCc3ccccc3)cc2)C(=O)N2Cc3ccccc3C[C@H]2C(=O)N2CCNC[C@H]2C(=O)N[C@@H](CCc2ccccc2)C(=O)N[C@H](Cc2c[nH]c3ccccc23)C(=O)N[C@H]1CC1CCNCC1 [Example 73] (cyclo([Tic][Pip(4-aza)][hPhe][dW][Ala(piperidin-4-yl)]Y(Bn)))")
398
>>> recorded_value("NCCNC(=O)O[C@@H]1C[C@H]2C(=O)N[C@@H](CCc3ccccc3)C(=O)N[C@H](Cc3c[nH]c4ccccc34)C(=O)N[C@@H](CC3CCNCC3)C(=O)N[C@@H](Cc3ccc(OCc4ccccc4)cc3)C(=O)N3Cc4ccccc4C[C@H]3C(=O)N2C1 [Example 17] (cyclo([Hyp]([CO-Ethylenediamine])[hPhe][dW][Ala(piperidin-4-yl)]Y(Bn)[Tic]))")
398

## Input Param item = O=C1N[C@@H](Cc2ccc(OCc3ccccc3)cc2)C(=O)N2Cc3ccccc3C[C@H]2C(=O)N2CCOC[C@H]2C(=O)N[C@H](CCc2ccccc2)C(=O)N[C@H](Cc2c[nH]c3ccccc23)C(=O)N[C@H]1CC1CCNCC1 [Example 62] (cyclo([Tic][Morpholine(3S-CO)][d(hPhe)][dW][Ala(piperidin-4-yl)]Y(Bn))) ; retrieve measured EC50.
## Output 631

###

- MEASUREMENT_TARGET: SST5 (Homo sapiens)
- Sequence (P35346 whole entry): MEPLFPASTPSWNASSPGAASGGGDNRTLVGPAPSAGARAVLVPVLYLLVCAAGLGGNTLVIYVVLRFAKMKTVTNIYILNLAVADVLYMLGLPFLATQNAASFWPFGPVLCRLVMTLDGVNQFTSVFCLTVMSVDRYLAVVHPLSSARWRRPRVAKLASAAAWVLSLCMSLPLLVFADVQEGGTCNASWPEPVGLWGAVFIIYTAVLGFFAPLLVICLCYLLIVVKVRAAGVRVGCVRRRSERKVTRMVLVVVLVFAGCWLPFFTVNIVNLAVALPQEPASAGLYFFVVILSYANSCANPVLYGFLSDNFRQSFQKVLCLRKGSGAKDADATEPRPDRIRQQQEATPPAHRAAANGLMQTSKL
- MEASUREMENT_NOTES: Hit Hunter cAMP XS+ assay, SST5 activation via Gi (reduction of forskolin-stimulated cAMP)
- Type: cell-based
- CONDITION_CONTEXT: selectivity for SST5 over SST2
*1 amine or outer side, *2 acyl side, *3 side chain or, on linkers, in order; H or OH if unused. Where a SMILES comes first, the peptide text is derived from it. Side-chain parts run from the residue outwards. [ ]: non-standard residue; d: D form. The star is where a group is joined. Ala(piperidin-4-yl) = O=C([C@H](CC1CCN([*:3])CC1)N[*:1])[*:2]; X2 = O=C([C@@H]1C[C@@H](Oc2ccncc2)CN1[*:1])[*:2]; Ala(piperazin-1-yl) = N[C@@H](CN1CCNCC1)C(=O)O; Ethylenediamine = C(CN[*:2])N[*:1]; d(hPhe) = N[C@H](CCc1ccccc1)C(=O)O; Hyp = O=C(O)[C@@H]1C[C@@H](O)CN1; hPhe = N[C@@H](CCc1ccccc1)C(=O)O; 3Pal = N[C@@H](Cc1cccnc1)C(=O)O; Cyclohexylmethyl = C1CCC(C*)CC1; CO = O=C([*:1])[*:2]; Bn = c1ccc(C*)cc1
SST5/2 Selectivity listing for selected molecules.
Enter a number only.

>>> recorded_value("O=C1N[C@@H](Cc2ccc(OCc3ccccc3)cc2)C(=O)N[C@@H](Cc2cccnc2)C(=O)N2C[C@H](Oc3ccncc3)C[C@H]2C(=O)N[C@@H](CCc2ccccc2)C(=O)N[C@@H](Cc2c[nH]c3ccccc23)C(=O)N[C@H]1CC1CCNCC1 [Example 23] (cyclo([3Pal][X2][hPhe]W[Ala(piperidin-4-yl)]Y(Bn)))")
148.7

// next entry
## Input Param item = NCCNC(=O)O[C@@H]1C[C@H]2C(=O)N[C@H](CCc3ccccc3)C(=O)N[C@H](Cc3c[nH]c4ccccc34)C(=O)N[C@@H](CN3CCNCC3)C(=O)N[C@@H](Cc3ccc(OCC4CCCCC4)cc3)C(=O)N[C@@H](Cc3cccnc3)C(=O)N2C1 [Example 71] (cyclo([3Pal][Hyp]([CO-Ethylenediamine])[d(hPhe)][dW][Ala(piperazin-1-yl)]Y(Cyclohexylmethyl))) ; retrieve measured SST5/2 Selectivity.
## Output 171.4

###

- MEASUREMENT_TARGET: SST5 (Homo sapiens)
- MEASUREMENT_NOTES: Hit Hunter cAMP XS+ assay, SST5 activation via Gi (reduction of forskolin-stimulated cAMP)
- Type: cell-based
- CONDITION_CONTEXT: read-out: SST5 (EMax)
*1 amine or outer side, *2 acyl side, *3 side chain or, on linkers, in order; H or OH if unused. Where a SMILES comes first, the peptide text is derived from it. Side-chain parts run from the residue outwards. [ ]: non-standard residue; d: D form. The star is where a group is joined. Ala(piperidin-4-yl) = O=C([C@H](CC1CCN([*:3])CC1)N[*:1])[*:2]; Ala(piperazin-1-yl) = N[C@@H](CN1CCNCC1)C(=O)O; Phe(3-Cl) = N[C@@H](Cc1cccc(Cl)c1)C(=O)O; Morpholine(3S-CO) = O=C(O)[C@@H]1COCCN1; Ethylenediamine = C(CN[*:2])N[*:1]; d(hPhe) = N[C@H](CCc1ccccc1)C(=O)O; Hyp = O=C(O)[C@@H]1C[C@@H](O)CN1; hPhe = N[C@@H](CCc1ccccc1)C(=O)O; Tic = O=C(O)[C@@H]1Cc2ccccc2CN1; CO = O=C([*:1])[*:2]; Bn = c1ccc(C*)cc1
Emax listing for selected molecules.
Record the value in %, omitting the unit from your answer.

Here's what some known entries look like.
>>> recorded_value("NCCNC(=O)O[C@@H]1C[C@H]2C(=O)N[C@@H](CCc3ccccc3)C(=O)N[C@H](Cc3c[nH]c4ccccc34)C(=O)N[C@@H](CN3CCNCC3)C(=O)N[C@@H](Cc3ccc(OCc4ccccc4)cc3)C(=O)N[C@@H](Cc3cccc(Cl)c3)C(=O)N2C1 [Example 48] (cyclo([Hyp]([CO-Ethylenediamine])[hPhe][dW][Ala(piperazin-1-yl)]Y(Bn)[Phe(3-Cl)]))")
103
>>> recorded_value("COc1ccc(C[C@@H]2NC(=O)[C@H](Cc3ccc(OCc4ccccc4)cc3)NC(=O)[C@H](CC3CCNCC3)NC(=O)[C@@H](Cc3c[nH]c4ccccc34)NC(=O)[C@@H](CCc3ccccc3)NC(=O)[C@@H]3C[C@@H](OC(=O)NCCN)CN3C2=O)cc1 [Example 55] (cyclo([Hyp]([CO-Ethylenediamine])[d(hPhe)][dW][Ala(piperidin-4-yl)]Y(Bn)Y(Me)))")
106

## Input Param item = O=C1N[C@@H](Cc2ccc(OCc3ccccc3)cc2)C(=O)N2Cc3ccccc3C[C@H]2C(=O)N2CCOC[C@H]2C(=O)N[C@H](CCc2ccccc2)C(=O)N[C@H](Cc2c[nH]c3ccccc23)C(=O)N[C@H]1CN1CCNCC1 [Example 61] (cyclo([Tic][Morpholine(3S-CO)][d(hPhe)][dW][Ala(piperazin-1-yl)]Y(Bn))) ; retrieve measured Emax.
## Output 103
